# Test system: Human immunodeficiency virus 1
# test_details: Concentration required to reduce CEM cell viability by 50%
# test_conditions: Human immunodeficiency virus 1, CCRF-CEM
Parameter: CC50. Scope: all listed entries.
reported_property: CC50 (µM)

In [3]: df
Out[3]:
                                   molecule  reported_property  qualifier_operator  assay_result
0  O=C1CSC(c2c(F)cccc2F)N1c1ccncc1 (centres undefined)               CC50                   =           284
1  Cc1cc(C)nc(N2C(=O)CSC2c2c(Cl)cccc2Cl)c1 (centres undefined)               CC50                   ≥           283
2  O=C1CSC(c2c(F)cccc2F)N1c1ccc(Br)cn1 (centres undefined)               CC50                   =          45.8
3  O=C1CSC(c2c(F)cccc2F)N1c1ccc(Cl)cn1 (centres undefined)               CC50                   =          47.1
